// data source = the kinase profiling compilation of Christmann-Franck et al. (2016)

- system: MAPK14 (human)
- protocol text: radiometric filter-binding kinase assay
- measurement context: compound 1.0 µM
experimental readout: residual activity (%)
Report the figure in % without appending any unit label.

{"molecular string": "O=C(N[C@@H](COc1ccc2[nH]c(=O)[nH]c2c1)c1ccccc1)c1cccn(Cc2ccc(F)c(F)c2)c1=O", "result unit": "%", "residual activity": 121}
{"molecular string": "C=CC(=O)N1CCC[C@@H](n2nc(-c3ccc(Oc4ccccc4)cc3)c3c(N)ncnc32)C1", "result unit": "%", "residual activity": 103}
{"molecular string": "Oc1ccc(/C=C/c2cc(O)cc(O)c2)cc1", "result unit": "%", "residual activity": 95}
{"molecular string": "COc1ccc(-n2ncc3cnc(Nc4cc(OC)c(OC)c(OCCCN5CCN(C)CC5)c4)nc32)cc1", "result unit": "%", "residual activity": 85}

**Query** Specify measured residual activity for COc1cc(C(=O)N2CCOCC2)c(F)cc1Nc1ncc(C(F)(F)F)c(NC2CC2)n1 .
**Result** 84
